Reference source for all entries: patent US20260015344A1

Study target: KRas^G12A (Homo sapiens, UniProt P01116, G12A)
Construct: corresponding to amino acids 1-169, produced at Accelegan Inc; biotin (biotinylated); purchased Accelegan Inc
Sequence (P01116 1-169 isoform P01116-2 G12A): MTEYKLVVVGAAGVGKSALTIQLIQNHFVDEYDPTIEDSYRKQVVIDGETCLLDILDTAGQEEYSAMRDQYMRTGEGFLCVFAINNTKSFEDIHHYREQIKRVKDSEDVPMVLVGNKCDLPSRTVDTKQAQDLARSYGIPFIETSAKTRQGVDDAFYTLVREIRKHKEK
Assay protocol: KRas Binding Assay (TR-FRET displacement), KRas G12A
Condition label: TR-FRET tracer displacement
Property: IC50 (nM)
Report the value in nM with no unit label.

Record for C[C@H](Oc1nc(-c2cc(C3(C)CCCc4sc(N)c(C#N)c43)sn2)cc(N2CCCC3(C2)NC(=O)NC3=O)n1)[C@@H]1CCCN1C (stereo partly drawn) under target or system KRas^G12A (Homo sapiens, UniProt P01116, G12A): IC50 reported as 240

Given the compound C[C@H](Oc1nc(-c2cc(C3(C)CCCc4sc(N)c(C#N)c43)sn2)cc(N2CCCn3nc(C(=O)N(C)C)cc3C2)n1)[C@@H]1CCCN1C (stereo partly drawn) and test system KRas^G12A (Homo sapiens, UniProt P01116, G12A), the measured IC50 is 551

Record C[C@H](Oc1nc(-c2noc(C3(C)CCCc4sc(N)c(C#N)c43)n2)cc(N2C[C@H]3CC[C@@H](C2)N3)n1)[C@@H]1CCCN1C (stereo partly drawn) ; system KRas^G12A (Homo sapiens, UniProt P01116, G12A); IC50 = 879

Short answer on KRas^G12A (Homo sapiens, UniProt P01116, G12A) for C[C@H](Oc1nc(-c2cc(C3(C)CCCc4sc(N)c(C#N)c43)sn2)cc(N2CCC[C@@](C)(O)C2)n1)[C@@H]1CCCN1C (stereo partly drawn) , IC50: 132

Item C[C@H](Oc1nc(-c2cc(C3(C)CCCc4sc(N)c(C#N)c43)sn2)cc(N2C[C@@H]3C[C@H](C2)[C@H](O)C3)n1)[C@@H]1CCCN1C (stereo partly drawn) was tested on KRas^G12A (Homo sapiens, UniProt P01116, G12A); the reported IC50 is 204

Response field IC50 (KRas^G12A (Homo sapiens, UniProt P01116, G12A)) for item C[C@H](Oc1nc(-c2noc(C3(C)CCCc4sc(N)c(C#N)c43)n2)cc(N2CCC[C@@](C)(O)C2)n1)[C@@H]1CCCN1C (stereo partly drawn) : 82

###

Study target: KRas^Q61H (Homo sapiens, UniProt P01116, Q61H)
Construct: corresponding to amino acids 1-169, produced at Accelegan Inc; biotin (biotinylated); purchased Accelegan Inc
Sequence (P01116 1-169 isoform P01116-2 Q61H): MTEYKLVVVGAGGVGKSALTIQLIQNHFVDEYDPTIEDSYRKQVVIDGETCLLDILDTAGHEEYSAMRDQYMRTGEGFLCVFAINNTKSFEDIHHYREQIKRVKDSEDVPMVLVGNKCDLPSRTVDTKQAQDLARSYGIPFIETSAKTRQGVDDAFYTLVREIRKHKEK
Assay protocol: KRas Binding Assay (TR-FRET displacement), KRas Q61H
Condition label: TR-FRET tracer displacement
Lab note: anything with IC50 below 100 nM is marked MET; values at 100 nM or higher are marked NOT MET.

Input: Would you kindly verify if IC50 of C[C@H](Oc1nc(-c2noc(C3(C)CCCc4sc(N)c(C#N)c43)n2)cc(N2CCC[C@@](C)(O)C2)n1)[C@@H]1CCCN1C (stereo partly drawn) is strictly less than 100 nM?
Output: NOT MET

Input: Field: below-cutoff. Rule: recorded IC50 strictly less than 100 nM. Subject: C[C@H](Oc1nc(-c2noc(C3(C)CCCc4sc(N)c(C#N)c43)n2)cc(N2CCCC3(CNS(=O)(=O)N3)C2)n1)[C@@H]1CCCN1C (stereo partly drawn)
Output: MET

Input: Consider C[C@H](Oc1nc(-c2cc(C3(C)CCCc4sc(N)c(C#N)c43)sn2)cc(N2C[C@H]3CC[C@@H](C2)N3)n1)[C@@H]1CCCN1C (stereo partly drawn) . Does its IC50 lie strictly below 100 nM?
Output: NOT MET

Input: Confirm or reject: IC50 of C[C@H](Oc1nc(-c2cc(C3(C)CCCc4sc(N)c(C#N)c43)sn2)cc(N2CCCC3(C2)NC(=O)NC3=O)n1)[C@@H]1CCCN1C (stereo partly drawn) lies strictly below 100 nM
Output: NOT MET

Input: Please state whether IC50 is below 100 nM for C[C@H](Oc1nc(-c2noc(C3(C)CCCc4sc(N)c(C#N)c43)n2)cc(N2CCCC3(C2)NC(=O)NC3=O)n1)[C@@H]1CCCN1C (stereo partly drawn)
Output: MET

Input: is_below(IC50, 100 nM) for C[C@H](Oc1nc(-c2noc(C3(C)CCCc4sc(N)c(C#N)c43)n2)cc(N2C[C@H]3CC[C@@H](C2)N3)n1)[C@@H]1CCCN1C (stereo partly drawn) ?
Output: NOT MET

###

Study target: KRas^WT (Homo sapiens, UniProt P01116)
Construct: corresponding to amino acids 1-169, produced at Accelegan Inc; biotin (biotinylated); purchased Accelegan Inc
Sequence (P01116 1-169 isoform P01116-2): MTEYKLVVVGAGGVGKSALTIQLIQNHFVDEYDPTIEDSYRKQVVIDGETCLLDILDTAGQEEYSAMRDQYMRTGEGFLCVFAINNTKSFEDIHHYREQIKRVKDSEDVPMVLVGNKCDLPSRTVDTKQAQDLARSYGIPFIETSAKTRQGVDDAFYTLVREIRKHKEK
Assay protocol: KRas Binding Assay (TR-FRET displacement), KRas WT
Condition label: TR-FRET tracer displacement
Property: IC50 (nM)
Lab book: enter the figure in nM, no units written.

The reported value for C[C@H](Oc1nc(-c2noc(C3(C)CCCc4sc(N)c(C#N)c43)n2)cc(N2C[C@H]3CC[C@@H](C2)N3)n1)[C@@H]1CCCN1C (stereo partly drawn) [Example 3] in terms of IC50 is 195

Lookup result for C[C@H](Oc1nc(-c2noc(C3(C)CCCc4sc(N)c(C#N)c43)n2)cc(N2CCC[C@@](C)(O)C2)n1)[C@@H]1CCCN1C (stereo partly drawn) [Example 1] ; measured IC50: 22

response.value for C[C@H](Oc1nc(-c2cc(C3(C)CCCc4sc(N)c(C#N)c43)sn2)cc(N2CCCn3nc(C(=O)N(C)C)cc3C2)n1)[C@@H]1CCCN1C (stereo partly drawn) [Example 12] (field: IC50) = 417

Lookup result for C[C@H](Oc1nc(-c2cc(C3(C)CCCc4sc(N)c(C#N)c43)sn2)cc(N2CCC[C@@](C)(O)C2)n1)[C@@H]1CCCN1C (stereo partly drawn) [Example 7] ; measured IC50: 129

The compound listed as C[C@H](Oc1nc(-c2noc(C3(C)CCCc4sc(N)c(C#N)c43)n2)cc(N2CCCC3(CNS(=O)(=O)N3)C2)n1)[C@@H]1CCCN1C (stereo partly drawn) [Example 4] has a reported IC50 of 10

Query C[C@H](Oc1nc(-c2cc(C3(C)CCCc4sc(N)c(C#N)c43)sn2)cc(N2C[C@H]3CC[C@@H](C2)N3)n1)[C@@H]1CCCN1C (stereo partly drawn) [Example 9] yields IC50 of 566

###

Study target: KRas^G12C (Homo sapiens, UniProt P01116, G12C)
Construct: corresponding to amino acids 1-169, produced at Accelegan Inc; biotin (biotinylated); purchased Accelegan Inc
Sequence (P01116 1-169 isoform P01116-2 G12C): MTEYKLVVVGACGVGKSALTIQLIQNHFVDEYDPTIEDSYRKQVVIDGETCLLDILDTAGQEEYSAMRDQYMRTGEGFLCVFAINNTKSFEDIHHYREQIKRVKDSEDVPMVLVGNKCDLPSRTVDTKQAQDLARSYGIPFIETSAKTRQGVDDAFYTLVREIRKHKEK
Assay protocol: KRas Binding Assay (TR-FRET displacement), KRas G12C
Condition label: TR-FRET tracer displacement
I'd be grateful if you could share measured IC50 for these entries.
Numbers only here, please. The scale is nM.

Entry C[C@H](Oc1nc(-c2cc(C3(C)CCCc4sc(N)c(C#N)c43)sn2)cc(N2CCCC3(CNS(=O)(=O)N3)C2)n1)[C@@H]1CCCN1C (stereo partly drawn) under KRas^G12C (Homo sapiens, UniProt P01116, G12C) had IC50 of 15

Hey, KRas^G12C (Homo sapiens, UniProt P01116, G12C) data for C[C@H](Oc1nc(-c2cc(C3(C)CCCc4sc(N)c(C#N)c43)sn2)cc(N2CCC[C@@](C)(O)C2)n1)[C@@H]1CCCN1C (stereo partly drawn) : IC50 came out at 174

With KRas^G12C (Homo sapiens, UniProt P01116, G12C) as the test system, C[C@H](Oc1nc(-c2noc(C3(C)CCCc4sc(N)c(C#N)c43)n2)cc(N2CCCC3(C2)NC(=O)NC3=O)n1)[C@@H]1CCCN1C (stereo partly drawn) showed IC50 of 54

Short answer on KRas^G12C (Homo sapiens, UniProt P01116, G12C) for C[C@H](Oc1nc(-c2noc(C3(C)CCCc4sc(N)c(C#N)c43)n2)cc(N2C[C@H]3CC[C@@H](C2)N3)n1)[C@@H]1CCCN1C (stereo partly drawn) , IC50: 1060

The reported KRas^G12C (Homo sapiens, UniProt P01116, G12C) IC50 of C[C@H](Oc1nc(-c2cc(C3(C)CCCc4sc(N)c(C#N)c43)sn2)cc(N2C[C@H]3CC[C@@H](C2)N3)n1)[C@@H]1CCCN1C (stereo partly drawn) is 3490

Field IC50 (KRas^G12C (Homo sapiens, UniProt P01116, G12C)), entry C[C@H](Oc1nc(-c2cc(C3(C)CCCc4sc(N)c(C#N)c43)sn2)cc(N2CCCn3nc(C(=O)N(C)C)cc3C2)n1)[C@@H]1CCCN1C (stereo partly drawn) : 457

###

Test system: KRas-mediated Phosphorylation of ERK in H460 cells
Assay protocol: HTRF pERK assay, H460 cells
Format: cell-based
Condition label: Homo sapiens, NCI-H460, 3 hrs compound incubation, read-out: Inhibition (HTRF IC50 nM) of KRas-mediated Phosphorylation of ERK, H460
Please go through the items and note down their IC50.
Kindly answer with a numeric value in nM, unit omitted.

Consider C[C@H](Oc1nc(-c2cc(C3(C)CCCc4sc(N)c(C#N)c43)sn2)cc(N2CCCC3(CNS(=O)(=O)N3)C2)n1)[C@@H]1CCCN1C (some centres unmarked) . Its measured IC50 is 288

// IC50 value for C[C@H](Oc1nc(-c2noc(C3(C)CCCc4sc(N)c(C#N)c43)n2)cc(N2CCOCC(C)(O)C2)n1)[C@@H]1CCCN1C (some centres unmarked) : 394
